Where do these numbers come from? They come from patent US20190338002A1.

study-system: T1, rat beta CGRP (SEQ ID NO: 83) (rat, not fully specified)
T1 construct: also called rat βCGRP; rat β-CGRP
T1 peptide: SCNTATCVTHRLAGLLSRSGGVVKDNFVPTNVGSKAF
assay-method-text: SPR, 37 C, mutein captured, CGRP analyte
Each entry below carries its reported kon.
Report only the number, with the unit M⁻¹ s⁻¹ understood.

1. lipocalin mutein SEQ ID NO: 21 (designed binder, biotinylated by NHS chemistry for capture in SPR) QDSTSDLIPAPPLSKVPLQQNFQDNQFHGKWYVVGRAGNDALREDKDPEKMEATIYELKEDKSYNVTDVGFVQKKCMYVIHTFVPGSQPGEFTLGNIKSYPGVTSALIRVVNTNYNQHAMVFVKLVKQNRELFEITLYGRTKELTSELKENFIRFSKSLGLPENHIVFPVPIDQCIDGSAWSHPQFEK :: 1.34e+06
2. lipocalin mutein SEQ ID NO: 7 (designed binder, biotinylated by NHS chemistry for capture in SPR) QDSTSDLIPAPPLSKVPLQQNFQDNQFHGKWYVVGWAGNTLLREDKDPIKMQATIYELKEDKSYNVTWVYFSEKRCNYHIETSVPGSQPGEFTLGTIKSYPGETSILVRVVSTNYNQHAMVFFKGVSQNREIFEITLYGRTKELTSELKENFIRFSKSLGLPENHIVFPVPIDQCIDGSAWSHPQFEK :: 3.04e+06

Now consider a different binder.
According to the records, this binder lipocalin mutein SEQ ID NO: 26 (designed binder, biotinylated by NHS chemistry for capture in SPR) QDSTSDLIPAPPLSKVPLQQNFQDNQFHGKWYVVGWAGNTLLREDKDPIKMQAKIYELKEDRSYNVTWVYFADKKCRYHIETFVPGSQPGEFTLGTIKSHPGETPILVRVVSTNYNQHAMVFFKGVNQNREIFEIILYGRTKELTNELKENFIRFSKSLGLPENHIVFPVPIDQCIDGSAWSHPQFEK displays kon of 1.56e+06
